Ref: paper PMC12636382

molecular target: zebrafish MR (zfMR) (Danio rerio, UniProt A6YIH7); experiment: UG5LN-GAL4-zfMR luciferase reporter cell assay (agonism and antagonism tests); type: cell-based; settings: in words; UG5LN-GAL4-zfMR cells
Sequence (A6YIH7 entry or part of it): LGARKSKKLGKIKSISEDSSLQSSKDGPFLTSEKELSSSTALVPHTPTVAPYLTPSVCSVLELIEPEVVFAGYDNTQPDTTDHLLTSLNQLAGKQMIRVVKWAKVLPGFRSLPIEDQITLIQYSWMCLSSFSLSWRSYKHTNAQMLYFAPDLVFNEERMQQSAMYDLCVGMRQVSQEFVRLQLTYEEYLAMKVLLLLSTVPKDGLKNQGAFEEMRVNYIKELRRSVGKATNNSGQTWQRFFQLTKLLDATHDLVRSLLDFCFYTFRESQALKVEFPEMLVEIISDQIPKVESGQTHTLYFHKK
MEASURED_METRIC: activity profile on zfMR (agonist / partial agonist / antagonist)

1. CCC(=O)[C@@]1(C)CC[C@H]2[C@@H]3CCC4=CC(=O)CCC4=C3CC[C@@]21C [promegestone] ... full antagonists
2. CC(=O)[C@H]1CC[C@H]2[C@@H]3CC=C4C[C@@H](O)CC[C@]4(C)[C@H]3CC[C@]12C [pregnenolone] ... full antagonists
3. C[C@]12CCC(=O)C=C1CC[C@@H]1[C@@H]2CC[C@@]2(C)[C@H]1CC[C@]2(O)C(=O)CO [11-deoxycortisol] ... partially activate
4. CCOc1ncc(C)c2c1[C@H](c1ccc(C#N)cc1OC)C(C(N)=O)=C(C)N2 [finerenone] ... full antagonists
5. C[C@]12CCC(=O)C=C1C=C[C@@H]1[C@@H]2CC[C@@]2(C)[C@H]1CC[C@@]21CCC(=O)O1 [canrenone] ... full antagonists
6. CC#C[C@]1(O)CC[C@H]2[C@@H]3CCC4=CC(=O)CCC4=C3[C@@H](c3ccc(N(C)C)cc3)C[C@@]21C [mifepristone] ... full antagonists
7. C[C@]12CCC(=O)C=C1CC[C@@H]1[C@@H]2[C@@H](O)C[C@@]2(C)[C@H]1CC[C@]2(O)C(=O)CO [cortisol] ... full zfMR agonists
8. C[C@]12CCC(=O)C=C1[C@@H]1C[C@@H]1[C@H]1[C@@H]3[C@@H]4C[C@@H]4[C@@]4(CCC(=O)O4)[C@@]3(C)CC[C@@H]12 [drospirenone] ... partially activate
9. CC(=O)S[C@@H]1CC2=CC(=O)CC[C@]2(C)[C@H]2CC[C@@]3(C)[C@@H](CC[C@@]34CCC(=O)O4)[C@H]12 [spironolactone] ... partially activate
10. C[C@]12CCC(=O)C=C1CC[C@@H]1[C@@H]2[C@@H](O)C[C@]2(C=O)[C@@H](C(=O)CO)CC[C@@H]12 [aldosterone] ... full zfMR agonists
11. COC(=O)[C@@H]1CC2=CC(=O)CC[C@]2(C)[C@@]23O[C@@H]2C[C@@]2(C)[C@@H](CC[C@@]24CCC(=O)O4)[C@H]13 [eplerenone] ... full antagonists
12. CC(=O)[C@H]1CC[C@H]2[C@@H]3CCC4=CC(=O)CC[C@]4(C)[C@H]3CC[C@]12C [progesterone] ... partially activate

* * *

biological target: zebrafish MR (zfMR) (Danio rerio, UniProt A6YIH7); test: UG5LN-GAL4-zfMR luciferase reporter cell assay (agonism and antagonism tests); type: cell-based; conditions: EC50
MEASURED_METRIC: EC50 (nM)

1. C[C@]12CCC(=O)C=C1CC[C@@H]1[C@@H]2[C@@H](O)C[C@@]2(C)[C@H]1CC[C@]2(O)C(=O)CO ... 0.87

* * *

molecular target: zebrafish MR (zfMR) (Danio rerio, UniProt A6YIH7); test: UG5LN-GAL4-zfMR luciferase reporter cell assay (agonism and antagonism tests); format: cell-based; details: environmental chemicals; antagonism test with aldosterone 0.5 10^−9 M; UG5LN-GAL4-zfMR; read-out: IC50
pIC50: −log10 of the molar value.
MEASURED_METRIC: pIC50

1) O=S1OCC2C(CO1)C1(Cl)C(Cl)=C(Cl)C2(Cl)C1(Cl)Cl (stereo not shown) [endosulfan] ... 5.08
2) O=C1C2(Cl)C3(Cl)C4(Cl)C(Cl)(Cl)C5(Cl)C3(Cl)C1(Cl)C5(Cl)C24Cl (stereo not shown) ... 5.25
3) CC(C)(c1ccc(O)cc1)c1ccc(O)c(Cl)c1 ... 5.37
4) CC(C)(C)CC(C)(C)c1ccc(O)cc1 ... 4.80
5) CC(C)(c1ccc(O)cc1)c1ccc(O)cc1 ... 5.29
6) CCCOCCN(C(=O)CCl)c1c(CC)cccc1CC ... 5.33
7) ClC1=C(Cl)C2(Cl)C3C4C=CC(C4)C3C1(Cl)C2(Cl)Cl (stereo not shown) ... 5.66
8) ClC(Cl)=C(c1ccc(Cl)cc1)c1ccccc1Cl ... 5.16
9) Oc1ccc(C(c2ccc(O)cc2)C(Cl)(Cl)Cl)cc1 ... 4.95
10) C=CC(C)(O)C(=O)Nc1cc(Cl)cc(Cl)c1 (stereo not shown) ... 5.15
